Quick reference: RAM network inhibition of the listed items.
Assay Info: RAM signaling pathway blockade in yeast – S. cerevisiae, Pdr1DBD-CYC8 efflux-inhibited sensitized strain, primary screen (AID 1298);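 note: 0% = DMSO untreated cells without growth and 100% = 10 µM 1-NA-PP1 full growth; higher means more yeast growth rescued from 5-FOA killing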
Condition: S. cerevisiae cbk1-as DSE1-URA3 strain, 5-FOA growth OD615, 2 d; at 50 µM; hits give high values
# number only, unit % dropped from output

Molecule | Measurement Units | RAM network inhibition
CCOC(=O)N1CCN(C(=O)c2cnn(-c3ccccc3)c2NC(=O)c2ccccc2F)CC1 | % | 1.56
Cc1cccc(C(=O)N2CCN(C(=O)c3cccc(C)c3)C(C)C2)c1 (stereo not given) | % | 0.55
CCCn1c(N2CCN(Cc3cccc(C)c3)CC2)nc2c1c(=O)[nH]c(=O)n2C | % | 2.5

In: Look up RAM network inhibition: O=C(O)C1C2C=CC3(CN(C4CCCC4)C(=O)C13)O2 (stereo not given)
Out: -0.17

In: Reported RAM network inhibition, molecule "CCOC(=O)c1sc2nc(NC(=O)c3cccs3)sc2c1C" : ____
Out: -0.16

In: What value of RAM network inhibition has been reported for the following molecule? "Cn1cccc1Cc1nnc(SCC(=O)N2CCCCCC2)n1-c1ccc(F)cc1"
Out: 4.48

In: Any idea what its RAM network inhibition is? The molecule is "CCOC(=O)c1[nH]c(C)c(C(=O)Nc2ccc(C)cc2C)c1C"
Out: 0.04

In: Form field: reported RAM network inhibition of "CCCN1CCN(CCCNC(=O)Cn2cc3c(n2)CCCC3)CC1"
Out: 3.05

In: For the molecule Cc1cc(C)cc(N(CC(=O)NCC2CCCO2)S(=O)(=O)c2c(C)noc2C)c1 (stereo not given) , what RAM network inhibition is on record?
Out: 1.84

In: // query RAM network inhibition value for entry "CCn1c(=O)cc(OCC(=O)N2CCc3ccccc32)c2ccccc21"
Out: 3.25

In: Field request: RAM network inhibition | item: "CNS(=O)(=O)c1ccc(Oc2ccc(S(=O)(=O)NC)cc2)cc1"
Out: 3.27

In: Look at this molecule and give its reported RAM network inhibition. O=P(c1ccccc1)(c1ccccc1)C1CCCO1 (stereo not given)
Out: 0.92

In: Which value of RAM network inhibition has been reported for "CCOC(=O)c1c(C)c(C(=O)O)n(C)c1C" in the records?
Out: 2.91

In: Entry "CCc1c(C)n([O-])c2c([n+]1=O)CCC2" : reported RAM network inhibition = ?
Out: 3.44

In: Tell me the measured RAM network inhibition of "CCn1cc(C(=O)NCCC2=CCCCC2)c(=O)c2cc(S(=O)(=O)N(C)C)ccc21" , please.
Out: 1.83

In: Given the molecule O=C1c2ccccc2C(Nc2ccc3c(c2)OCO3)N1Cc1ccc2c(c1)OCO2 (stereo not given) , what is its reported RAM network inhibition?
Out: 4.17

In: Entry O=C1C(=O)N(CCCn2ccnc2)C(c2cccnc2)/C1=C(/O)c1ccc(Cl)cc1 (stereo not given) has what RAM network inhibition?
Out: 1.1

In: What RAM network inhibition value was documented for this molecule, CC1CC(NC(=O)c2cnc3n(c2=O)CCS3)CC(C)(C)C1 (stereo not given) ?
Out: 0.68

###

Assay Info: RAM signaling pathway blockade in yeast – S. cerevisiae, Pdr1DBD-CYC8 efflux-inhibited sensitized strain, primary screen (AID 1298);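 note: 0% = DMSO untreated cells without growth and 100% = 10 µM 1-NA-PP1 full growth; higher means more yeast growth rescued from 5-FOA killing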
Condition: S. cerevisiae cbk1-as DSE1-URA3 strain, 5-FOA growth OD615, 2 d; at 50 µM; hits give high values
# reported RAM network inhibition; entries follow
Expressed in %, but write only the number.

Below, 6 compounds whose answers are already recorded.
Compound | Measurement Units | Measured Result
Cc1ccc(CN2CCN(CC(=O)N3CCC(C(N)=O)CC3)C2=O)cc1 | % | 3.53
COc1ccc(C(=O)c2coc3ccc(O)c(CN4CCCCC4)c23)cc1 | % | 6.6
COc1ccc(OC)c(C2CC(=O)NC(SC)=C2C#N)c1 (configuration not stated) | % | 2.19
CCCOc1ccc(N2CC(C(=O)Nc3ccc4c(c3)OCO4)CC2=O)cc1 (configuration not stated) | % | 2.77
Cc1ccccc1-n1c(Cn2c(=O)sc3ccccc32)nnc1SCC(N)=O | % | 4.35
CC1=C(C(=O)OC(C)C)C(c2ccccn2)n2ncnc2N1 (configuration not stated) | % | 7.35

In: Look up RAM network inhibition for this compound: "COc1ccc(-n2ncc3c(N4CCN(c5cccc(C)c5C)CC4)ncnc32)cc1"
Out: 7.15

In: # lookup: RAM network inhibition of "CCn1cc(C(=O)N2CCOCC2)c(=O)c2cc(S(=O)(=O)N(C)C3CCCCC3)ccc21"
Out: 2.09

In: Reported RAM network inhibition, compound CC1=C(C(=O)N2CCCCC2)C(c2cccs2)C2=C(CCCC2=O)N1 (configuration not stated) : ____
Out: -0.77

In: RAM network inhibition for O=C(NCC1COc2ccccc2O1)C1C2C=CC3(CN(Cc4ccccc4Cl)C(=O)C13)O2 (configuration not stated) ?
Out: 0

In: For the compound "O=C(COC(=O)c1cnccn1)c1ccc2c(c1)CCCC2" , what RAM network inhibition is on record?
Out: 1.14

In: # query: RAM network inhibition of entry CCn1cc(C(=O)NCC2CCCO2)c(=O)c2cc(S(=O)(=O)N(C)C)ccc21 (configuration not stated)
Out: 1.14
